Test system: OVCAR-3 ovarian
Experiment: NCI tumour cell line growth inhibition, 48 h
Mark 0.0 for TGI values under 40 µM, and 1.0 for everything at or above.

Cc1c2c(cc3c1[nH]c1ccccc13)C=NCC2	0.0
Cc1ccsc1/C=N/Nc1cc(C)c2cccc(C)c2n1	1.0
NC(=O)N/N=C/C(/C=N/NC(N)=O)[N+](=O)[O-]	1.0
FC(F)(F)c1ccccc1N1CCN(c2nc(-c3cccs3)nc3ccc(Br)cc23)CC1	1.0
C=C1C[C@@H](O)C[C@@]2(C)C[C@@H]3OC(=O)C(=C)[C@@H]3C[C@H]12	0.0
CC(=O)OCCOCNC(=S)N/N=C(\C)c1cnc2ccccc2n1	1.0
COc1cc(OC)c2c(O)c3c(cc2c1)CC(C)(C)CC3=O	1.0
CCC1C(c2cccc(OC)c2O)c2cc3c(cc2OC1N1CCCC1)OCO3 (stereo not drawn)	1.0
Cn1ncc2c(N)nc(N3CCCCC3)nc21	1.0
Cc1ccc(OCC2OC(n3cnc4nc(Cl)nc(Cl)c43)CC2Oc2ccc(C)cc2)cc1 (stereo not drawn)	0.0
CC(C)c1ccc(/C(C(=O)O)=C(\O)C(=O)O)cc1	1.0
O=C(/C=C/c1ccsc1)c1ccco1	0.0
O=C1C[C@@H]2C(COC(=O)c3ccccc3)N(OCc3ccccc3)C[C@@H]2O1 (stereo partly drawn)	1.0
COc1cccc(C(=O)N2CCc3ccccc32)c1OC	1.0
COc1ccc(S(=O)(=O)O)cc1-n1nc(C(=O)Nc2ccccc2)n[n+]1-c1cc(S(=O)(=O)[O-])ccc1OC	1.0
Clc1ccc2[nH]cc(-c3nc(-c4c[nH]c5ncccc45)cs3)c2c1	0.0
[Se]=P(c1ccccc1)(c1ccccc1)c1ccc(C(c2ccccc2)=P(c2ccccc2)(c2ccccc2)c2ccccc2)cc1	0.0
O=C1C(NCCc2ccc(O)c(O)c2)=CC(=O)c2ncccc21	0.0
C=C1C(=O)OC2(C)C3CCC(C3)C12 (stereo not drawn)	1.0
CN(C)N1C(=O)c2ccccc2NC1c1ccccc1 (stereo not drawn)	1.0
COC(=O)C(CCc1ccccc1I)C1=CCC2(CC1)OCCO2 (stereo not drawn)	1.0
COc1ccccc1NC(=O)n1nc(N)c2ccccc21	1.0
c1ccc(C2=Nc3nc4ccccc4n3C(c3ccccc3)C2)cc1 (stereo not drawn)	1.0

###

Catalogue of TGI values
Tested on: SK-MEL-5 melanoma
Assay: NCI tumour cell line growth inhibition, 48 h
Readout Label: TGI

O=C(c1ccc2ncc(-c3nc(NC4CC4)ncc3F)n2c1)N1CCOCC1	8.53 µM
CCOC(=O)c1c(Br)c(-c2ccc(Br)cc2)c(Br)n1C	35.2 µM
Clc1ccc2[nH]cc(-c3nc(-c4c[nH]c5ncccc45)cs3)c2c1	12.5 µM
COc1ccc(S(=O)(=O)O)cc1-n1nc(C(=O)Nc2ccccc2)n[n+]1-c1cc(S(=O)(=O)[O-])ccc1OC	> 100 µM
O=C(/C=C/c1ccsc1)c1ccco1	29.7 µM
CC(C)c1ccc(/C(C(=O)O)=C(\O)C(=O)O)cc1	> 100 µM
CC(C)[C@@H]1CC[C@@H](C)C[C@H]1OC(=O)/C=C1/C2C=CC(O2)C1C(=O)O[C@@H]1C[C@H](C)CC[C@H]1C(C)C (some centres undefined)	> 100 µM
O=C1CC(=O)c2c(O)cc(O)c(c2O)-c2c(ccc(O)c2O)C2=CC(=O)c3c(O)cc(O)c(c3O2)-c2c1ccc(O)c2O (tested in a mixture with another compound)	> 50 µM
Cc1nc2sc(C(=O)Nc3cccc4ccccc34)c(N)c2cc1C(=O)c1ccccc1	12.4 µM

###

Tested on: NCI-H23 lung
Test: NCI tumour cell line growth inhibition, 48 h
Readout Label: TGI

Cc1ccc(S(=O)(=O)/N=C(\NN)Nc2ccc(Cl)cc2)cc1	> 100 µM
COc1ccc2c(c1OC)C1=C(C2=O)c2cc3c(cc2CCN1)OCO3	> 100 µM
Cc1nc2c(n1C(C)(C)C)C(=O)c1ccccc1C2=O	> 100 µM
O=C(Nc1nc2c(=O)[nH]cnc2s1)c1ccccc1	> 100 µM
Cn1ccn2c3nc4ccccc4nc3c(=O)c(C#N)c12	> 100 µM
COc1cc2c3c(n(CCCNCCN)c(=O)c2cc1OC)-c1cc2c(cc1C3=O)OCO2	1.14 µM
Nc1ccc2c(c1)NCCN2	> 100 µM
COC1CC2C=C(C)/C=C/C=C/C(=O)NC(c3ccccc3)C/C=C/CCC(O)CC(=O)C2=C1O (stereo unspecified)	1.11 µM
CC(C)C(C/C=C1\CC(CO)(COC(=O)c2ccccc2)OC1=O)C(C)C (stereo unspecified)	38 µM
CCOC(=O)c1sc2nc(SC)nc3c2c1NC(=O)CN3c1cccc(F)c1	> 100 µM
CCOC(=O)Nc1c(C#N)[n+]([O-])c2cc(Cl)c(Cl)cc2[n+]1[O-]	53.9 µM

###

Test system: A498 renal
Possible outcomes: active, inactive

O=C(Nc1ccc(Cl)cc1)c1ccc(NC2=C(Cl)C(=O)N(Cc3ccccc3)C2=O)cc1	inactive
N#Cc1cnc2cc(OC[C@@H](O)CO)c(NC(=O)CC3CSSC3)cc2c1Nc1ccc(OCc2cccc(F)c2)c(Cl)c1	inactive
NC(=O)c1cc(Br)cc(C2CCCCC2)c1O	inactive
CC(=O)O[C@H]1CC[C@@]2(C)C(=CC[C@H]3[C@@H]4C/C(=C\c5cccc(OCCN6CCOCC6)c5)[C@H](OC(C)=O)[C@@]4(C)CC[C@@H]32)C1	inactive
CC1(C)OC(=O)C=C([O-])O1.CC1(C)OC(=O)C=C([O-])O1.O=S(=O)([O-])c1ccc([O-])c2ncccc12.O=S(=O)([O-])c1ccc([O-])c2ncccc12.[Ti+4]	inactive
O=C(c1ccc2ncc(-c3nc(NC4CC4)ncc3F)n2c1)N1CCOCC1	inactive
COCCOC(=O)NC(=O)Nc1ccc(/C(=N/O)c2ccc(Cl)cc2)cc1	active
N#Cc1c(-c2ccccc2)cc(-c2ccc(Nc3nc(Nc4ccc(Cl)cc4)nc(Nc4ccc(Cl)cc4)n3)cc2)nc1N	inactive
COc1ccc(-c2cc(/C=C3\C(=O)Nc4ccc(Cl)cc43)[nH]n2)cc1	inactive
CCOC(=O)C(=Cc1ccccc1[N+](=O)[O-])C(=O)OCC	inactive
OCC1OC(n2ccc3c(NO)ncnc32)C(O)C1O (stereo not drawn)	active
O=C(NCCCNc1cc(-c2cn(-c3ccccc3)nc2-c2cccc(O)c2)ccn1)c1ccccc1	inactive
Cc1nc2ccc(Nc3nc(NCCN4CCOCC4)nc(Nc4ccc(F)cc4)n3)cc2n1Cc1ccccc1	inactive
C#CC1(O)C(COP(=O)(O)OC2CC(n3cc(F)c(=O)[nH]c3=O)OC2CO)OC(n2ccc(N)nc2=O)C1O (stereo not drawn)	active
O=[N+]([O-])c1ccc(N/N=C/c2c(O)ccc3ccccc23)nc1	inactive
COc1cc2c3c(c1)c1cc(OC)c(OC)cc1c[n+]3CC2	inactive
COc1ccccc1NC(=O)n1nc(N)c2ccccc21	inactive
COc1ccc(/C=C/c2nc(NCCCN(C)C)c3ccccc3n2)cc1	inactive

###

System: MDA-MB-231 breast
Assay: NCI tumour cell line growth inhibition, 48 h
Readout Label: TGI

C=C1C(=O)OC2CC1C(O)C/C(C)=C/CC/C(C)=C/C(O)CC2C (stereo unspecified)	12.4 µM
Cc1nc2sc(C(=O)Nc3cccc4ccccc34)c(N)c2cc1C(=O)c1ccccc1	> 50 µM
COC(=O)c1cc(NC(=O)c2cc(NC(=O)c3cc([N+](=O)[O-])cn3C)cn2C)cn1C	> 100 µM
COc1ccc2[nH]c(Cl)c(/C=C3/C(=O)Nc4cc(C)c(OC)cc43)c2c1	20.6 µM
COc1cc2c3c(c1)c1cc(OC)c(OC)cc1c[n+]3CC2	> 100 µM
COc1cc(OC)c2c(O)c3c(cc2c1)CC(C)(C)CC3=O	> 100 µM
O=c1c(SSc2coc3cc(F)ccc3c2=O)coc2cc(F)ccc12	37.1 µM
CC[C@@]1(O)C(=O)NCc2c1cc1n(c2=O)Cc2cc3c(N)cccc3nc2-1	> 60.3 µM
CN(C)N1C(=O)c2ccccc2NC1c1ccccc1 (stereo unspecified)	> 100 µM
N=C(N=C(N)N)N1CCN(c2ccncc2)CC1	> 1000 µM
COc1ccc(/C=C/c2nc(NCCCN(C)C)c3ccccc3n2)cc1	5.24 µM
O=C(Nc1c[nH]c(=O)[nH]c1=O)C(Cl)Cl	> 100 µM
O=C(/C=C/c1ccsc1)c1ccco1	26.9 µM
CCCCCC(=O)N[C@@H](c1ccccc1)C(O)C(=O)OC1C[C@@]2(O)C(OC(=O)c3ccccc3)C3[C@](C)(C(=O)[C@H](O)C(=C1C)C2(C)C)C(OC1OCC(O)C(O)C1O)C[C@H]1OC[C@@]31OC(C)=O (stereo partly specified)	> 100 µM
CN(C)c1ccc(/C=C2\N=C(NN)NC2=O)cc1	> 100 µM
COc1ccc2c(Nc3ccc(NS(C)(=O)=O)cc3)c3ccccc3nc2c1	6.65 µM
FC(F)(F)c1ccccc1N1CCN(c2nc(-c3cccs3)nc3ccc(Br)cc23)CC1	74 µM
CCOc1cc2c(NCCCN(CCO)CCO)ncnc2c(OCC)c1OCC	> 100 µM
NC(=Nc1ccc(O)cc1)S(=O)(=O)O	> 100 µM
NNc1nc2ccccc2c(=O)n1NC(=O)C(=O)Nc1cccc(C(F)(F)F)c1	> 100 µM
CN(C)CCCN1c2nc3ccccc3cc2Sc2cc3ccccc3nc21	2.75 µM
C=CCOCn1cnc2c(N)ncnc21	> 100 µM
CC(C)C(C/C=C1\CC(CO)(COC(=O)c2ccccc2)OC1=O)C(C)C (stereo unspecified)	44.2 µM
O=C1NC(N/N=C\C(O)C(O)C(O)CO)=N/C1=C/c1ccc(Cl)cc1 (stereo unspecified)	> 100 µM
Cc1ccc(N=Nc2c(O)ccc3cc(S(=O)(=O)O)ccc23)c(C)c1	> 100 µM
Clc1cc2c(c(CSC3=NCN(CC4CC4)CN3)c1)OCOC2	48 µM
O=c1/c(=C\c2ccccc2)sc2n1C(c1ccccc1)C1(O)CCCCC1N=2 (stereo unspecified)	> 100 µM
CC(=O)N1CCc2c([nH]c3ccc(Br)cc23)C1c1ccccc1 (stereo unspecified)	> 10 µM
O=C1C(NCCc2ccc(O)c(O)c2)=CC(=O)c2ncccc21	16.1 µM
C#CC1(O)C(COP(=O)(O)OC2CC(n3cc(F)c(=O)[nH]c3=O)OC2CO)OC(n2ccc(N)nc2=O)C1O (stereo unspecified)	> 61.9 µM
COc1ccc(N2C(=Nc3ccccc3)SC(=N/S(=O)(=O)c3ccccc3)/C2=N\S(=O)(=O)c2ccccc2)cc1	43.5 µM
N#Cc1c(SCc2ccccc2)nc(-c2ccccc2)[nH]c1=S	> 100 µM
O=C(NCCC(F)(F)C(F)(F)C(F)(F)C(F)(F)F)NC1OC(CO)C(O)C(O)C1O (stereo unspecified)	> 100 µM
COc1cccc(-c2ccc3c4c2O[C@H]2c5[nH]c6ccccc6c5C[C@@]5(O)[C@@H](C3)N(CC3CC3)CC[C@]425)c1	3.44 µM
CC(C)=CC(=O)O[C@H]1C(=O)O[C@@H]2C[C@H]3[C@H](C)C(=O)C(O[C@@H]4O[C@H](CO)[C@@H](O)[C@H](O)[C@H]4O)=C[C@]3(C)[C@H]3[C@@H](O)[C@H](O)[C@]4(C(=O)O)OC[C@]32[C@@H]14	> 100 µM
CC1(C)[C@@H](Cn2cnc3c(N)ncnc32)CC[C@@]1(C)CO	> 100 µM
